target: Cbl-B (Homo sapiens); construct: MSD-Based Assay for Degradation of Cbl-B in THP-1 Cells; endogenous in cells; host or cells: THP-1 (title) / Jurkat (protocol text); assay: MSD-based assay for degradation of Cbl-B in THP-1 cells; type: cell-based; conditions: Cbl-B degradation, Jurkat cells seeded (heading: THP-1 cells), 24 hours incubation, MSD readout
Sequence (Q13191 whole entry): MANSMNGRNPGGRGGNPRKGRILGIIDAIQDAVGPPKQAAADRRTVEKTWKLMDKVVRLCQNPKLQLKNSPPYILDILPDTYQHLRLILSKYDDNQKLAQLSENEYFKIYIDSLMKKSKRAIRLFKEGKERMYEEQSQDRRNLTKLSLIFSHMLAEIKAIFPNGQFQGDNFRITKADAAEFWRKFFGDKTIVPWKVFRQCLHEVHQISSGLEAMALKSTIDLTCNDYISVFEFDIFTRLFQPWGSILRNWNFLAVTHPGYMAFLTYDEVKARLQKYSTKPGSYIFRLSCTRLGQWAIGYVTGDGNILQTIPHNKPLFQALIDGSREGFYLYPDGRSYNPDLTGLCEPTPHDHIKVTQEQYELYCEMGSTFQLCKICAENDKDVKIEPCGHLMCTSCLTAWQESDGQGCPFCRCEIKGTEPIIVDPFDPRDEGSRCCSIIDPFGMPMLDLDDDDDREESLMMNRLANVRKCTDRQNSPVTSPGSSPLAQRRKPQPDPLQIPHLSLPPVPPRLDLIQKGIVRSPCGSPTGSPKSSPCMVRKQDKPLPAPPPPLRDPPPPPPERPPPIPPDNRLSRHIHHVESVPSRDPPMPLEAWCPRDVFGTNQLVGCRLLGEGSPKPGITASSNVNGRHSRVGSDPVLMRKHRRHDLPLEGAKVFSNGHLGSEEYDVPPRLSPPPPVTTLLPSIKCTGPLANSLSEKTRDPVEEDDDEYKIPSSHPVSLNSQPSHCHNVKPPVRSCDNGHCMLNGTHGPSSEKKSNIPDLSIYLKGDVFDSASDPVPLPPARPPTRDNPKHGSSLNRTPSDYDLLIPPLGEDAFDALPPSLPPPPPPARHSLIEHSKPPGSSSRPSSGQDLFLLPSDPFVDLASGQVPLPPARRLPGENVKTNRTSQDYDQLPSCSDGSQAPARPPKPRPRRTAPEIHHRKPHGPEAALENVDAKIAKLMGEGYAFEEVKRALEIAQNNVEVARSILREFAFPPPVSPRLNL
assay.readout: DC50

| compound | tested.target | result |
| --- | --- | --- |
| CN(CCOC1CCN(Cc2cc(C(F)(F)F)c3cn(-c4cccc([C@H](c5nncn5C)C5CCC5)c4)c(=O)n3c2)CC1)C(=O)c1ccc(N2CCN(c3ccc4c(c3)CN([C@@H]3CCC(=O)NC3=O)C4=O)CC2)cc1 [Compound 35] | Cbl-B (Homo sapiens) | 300 to 1000 nM |
| Cn1cnnc1[C@H](c1cccc(-n2cc3c(C(F)(F)F)cc(CN4CCC(OCCOCc5ccc(COCCNc6cccc7c6C(=O)N(C6CCC(=O)NC6=O)C7=O)cc5)CC4)cn3c2=O)c1)C1CCC1 (single isomer, unassigned) [Compound 6] | Cbl-B (Homo sapiens) | 30 to 300 nM |
| Cn1cnnc1[C@@H](c1cccc(-n2cc3c(C(F)(F)F)cc(CN4CCC[C@H](OCc5ccc(CC6CCN(c7ccc8c(c7)CN([C@@H]7CCC(=O)NC7=O)C8=O)CC6)cc5)C4)cn3c2=O)c1)C1CCC1 (single isomer, unassigned) [Compound 187] | Cbl-B (Homo sapiens) | > 10000 nM |
| Cn1cnnc1[C@@H](c1cccc(-n2cc3c(C(F)(F)F)cc(CN4CCC(OCCN5CCC(CN6CCN(c7ccc8c(c7)CN([C@H]7CCC(=O)NC7=O)C8=O)CC6)CC5)CC4)cn3c2=O)c1)C1COC1 [Compound 58] | Cbl-B (Homo sapiens) | 30 to 300 nM |
